Hey, just so you know, these numbers are from patent US20160159814A1.

EXPERIMENTAL_TARGET: human type 1 glycine transporter (GlyT1) (Homo sapiens)
Construct: T98G cells (glioma cells) expressing human type 1 glycine transporter (GlyT1) were used; endogenous in cells; host or cells: T98G cells (human glioma cells)
PROTOCOL_DESCRIPTION: Glycine uptake inhibition experiment ([3H] glycine uptake in T98G cells expressing GlyT1)
Type: cell-based
MEASURE_NAME: IC50 (µM)

C[C@H](O)c1cccc2c1C(F)(F)C(=O)N2Cc1ccc(C2CC2)nc1 | 0.16
C[C@H](O)c1ccc(F)c2c1C(F)(F)C(=O)N2Cc1ccnc(C#N)c1 | 0.014

I: C[C@H](O)c1cccc2c1C(F)(F)C(=O)N2Cc1ccc(-n2cncn2)nc1
II: O=C1N(Cc2cncc(C3CC3)c2)c2cccc(C(O)C(F)F)c2C1(F)F (single isomer, unassigned)
III: C[C@H](O)c1cccc2c1C(F)(F)C(=O)N2Cc1ccc(Cl)nc1Cl
IV: C[C@H](O)c1cccc2c1C(F)(F)C(=O)N2Cc1ncccc1F
V: O=C1N(Cc2ccc(C(F)(F)F)cn2)c2cccc(C(O)C(F)F)c2C1(F)F (single isomer, unassigned)
Please give the order of these compounds when sorted by IC50, largest value leading. To answer, arrange all of the labels according to the requested order.
I, III, II, IV, V

a: C[C@H](O)c1cccc2c1C(F)(F)C(=O)N2Cc1cnc(Cl)cc1Cl
b: O=C1N(Cc2ccc(F)c(Br)n2)c2cccc(C(O)C(F)F)c2C1(F)F (single isomer, unassigned)
c: C[C@H](O)c1cccc2c1C(F)(F)C(=O)N2Cc1cc(C(F)(F)F)c(Cl)cn1
Please give the order of these compounds when sorted by IC50, largest value leading. To answer, arrange all of the labels according to the requested order.
a, c, b
